measurement notes: Selectivity index, ratio of Cytotoxicity against African green monkey Vero cells assessed as reduction in cell viability after 48 hrs by SRB assay to Antiviral activity against acyclovir-resistant Herpes simplex virus 1 29-R infected in African green monkey Vero cells assessed as inhibition of viral replication after 48 hrs by naphthol blue-black staining-based plaque reduction assay
Format: toxicity
measurement setup: Vero cells infected with HSV-1 29-R, read-out: Ratio CC50/IC50
Overview of recorded selectivity ratio at 48 h for various compounds
Reply with just the number.

Answered cases to consult:
INSERT INTO results (chemical_structure, measurement_type, quantitative_result) VALUES
  ('C[C@]12CC[C@H](O)C[C@H]1CC[C@@H]1[C@@H]2CC[C@]2(C)[C@@H](C3=CC(=O)OC3)CC[C@]12O', 'selectivity ratio at 48 h', 27),
  ('CC(=O)OC[C@H]1O[C@@H](OCc2cn([C@H]3CC[C@@]4(C)[C@H](CC[C@@H]5[C@@H]4CC[C@]4(C)[C@@H](C6=CC(=O)OC6)CC[C@]54O)C3)nn2)[C@H](OC(C)=O)[C@@H](OC(C)=O)[C@@H]1OC(C)=O', 'selectivity ratio at 48 h', 135);

Let's switch to this compound now.
q: Could you tell me which selectivity ratio at 48 h is on file for C[C@]12CC[C@H](NC(=O)CCl)C[C@H]1CC[C@@H]1[C@@H]2CC[C@]2(C)[C@@H](C3=CC(=O)OC3)CC[C@]12O ?
a: 247

----------
Some compounds, each annotated with its measured pIC50.
System: Human alphaherpesvirus 2
measurement notes: Antiviral activity against Herpes simplex virus 2-333 infected in African green monkey Vero cells assessed as inhibition of viral replication after 48 hrs by naphthol blue-black staining-based plaque reduction assay
Type: functional, organism-based
measurement setup: Human alphaherpesvirus 2, 333, Vero
Schema: pIC50 number; meaning minus log10 of the concentration expressed in molar units.

INSERT INTO measurements (chemical_structure, tested_target, measurement_type, quantitative_result) VALUES
  ('CC(=O)OC[C@H]1O[C@H](OCc2cn([C@H]3CC[C@@]4(C)[C@H](CC[C@@H]5[C@@H]4CC[C@]4(C)[C@@H](C6=CC(=O)OC6)CC[C@]54O)C3)nn2)[C@@H](OC(C)=O)[C@@H](OC(C)=O)[C@@H]1OC(C)=O', 'Human alphaherpesvirus 2', 'pIC50', 5.34),
  ('C[C@]12CC[C@H](NC(=O)CO)C[C@H]1CC[C@@H]1[C@@H]2CC[C@]2(C)[C@@H](C3=CC(=O)OC3)CC[C@]12O', 'Human alphaherpesvirus 2', 'pIC50', 6.52);

q: Request - read-out pIC50 | tested on Human alphaherpesvirus 2 | compound C[C@]12CC[C@H](n3cc(CO[C@@H]4O[C@H](CO)[C@@H](O[C@H]5O[C@H](CO)[C@@H](O)[C@H](O)[C@H]5O)[C@H](O)[C@H]4O)nn3)C[C@H]1CC[C@@H]1[C@@H]2CC[C@]2(C)[C@@H](C3=CC(=O)OC3)CC[C@]12O
a: 5.38

----------
measurement notes: Selectivity index, ratio of Cytotoxicity against African green monkey Vero cells assessed as reduction in cell viability after 48 hrs by SRB assay to Antiviral activity against acyclovir-sensitive Herpes simplex virus 1 KOS infected in African green monkey Vero cells assessed as inhibition of viral replication after 48 hrs by naphthol blue-black staining-based plaque reduction assay
Assay type: toxicity
measurement setup: Vero cells infected with HSV-1 KOS, read-out: Ratio CC50/IC50
measurement type: selectivity ratio at 48 h

INSERT INTO measurements (chemical_structure, measurement_type, result) VALUES
  ('C[C@]12CC[C@H](NC(=O)CNc3ccc(C#N)cc3)C[C@H]1CC[C@@H]1[C@@H]2CC[C@]2(C)[C@@H](C3=CC(=O)OC3)CC[C@]12O', 'selectivity ratio at 48 h', '> 500'),
  ('C[C@]12CC[C@H](NC(=O)CO)C[C@H]1CC[C@@H]1[C@@H]2CC[C@]2(C)[C@@H](C3=CC(=O)OC3)CC[C@]12O', 'selectivity ratio at 48 h', '> 1250'),
  ('Nc1nc2c(ncn2COCCO)c(=O)[nH]1', 'selectivity ratio at 48 h', '> 1450');

Let us move to another entry and its selectivity ratio at 48 h.
q: Fill blank: measured selectivity ratio at 48 h of the molecule C[C@]12CC[C@H](n3cc(CO[C@@H]4O[C@H](CO)[C@@H](O)[C@H](O)[C@H]4O)nn3)C[C@H]1CC[C@@H]1[C@@H]2CC[C@]2(C)[C@@H](C3=CC(=O)OC3)CC[C@]12O is ____.
a: > 108

----------
measurement notes: Selectivity index, ratio of Cytotoxicity against African green monkey Vero cells assessed as reduction in cell viability after 48 hrs by SRB assay to Antiviral activity against Herpes simplex virus 2-333 infected in African green monkey Vero cells assessed as inhibition of viral replication after 48 hrs by naphthol blue-black staining-based plaque reduction assay
Assay type: toxicity
measurement setup: Vero cells infected with HSV-2 333, read-out: Ratio CC50/IC50
measurement type: selectivity ratio at 48 h

INSERT INTO assay_data (chemical_structure, measurement_type, result) VALUES
  ('C[C@]12CC[C@H](NC(=O)CNc3ccc(C#N)cc3)C[C@H]1CC[C@@H]1[C@@H]2CC[C@]2(C)[C@@H](C3=CC(=O)OC3)CC[C@]12O', 'selectivity ratio at 48 h', '> 300'),
  ('C[C@]12CC[C@H](n3cc(CO[C@H]4O[C@H](CO)[C@@H](O)[C@H](O)[C@@H]4O)nn3)C[C@H]1CC[C@@H]1[C@@H]2CC[C@]2(C)[C@@H](C3=CC(=O)OC3)CC[C@]12O', 'selectivity ratio at 48 h', '> 732'),
  ('C[C@]12CC[C@H](n3cc(CO[C@@H]4O[C@H](CO)[C@@H](O)[C@H](O)[C@H]4O)nn3)C[C@H]1CC[C@@H]1[C@@H]2CC[C@]2(C)[C@@H](C3=CC(=O)OC3)CC[C@]12O', 'selectivity ratio at 48 h', '> 140'),
  ('C[C@]12CC[C@H](NC(=O)CNCCO)C[C@H]1CC[C@@H]1[C@@H]2CC[C@]2(C)[C@@H](C3=CC(=O)OC3)CC[C@]12O', 'selectivity ratio at 48 h', '> 1110'),
  ('C[C@]12CC[C@H](NC(=O)CO)C[C@H]1CC[C@@H]1[C@@H]2CC[C@]2(C)[C@@H](C3=CC(=O)OC3)CC[C@]12O', 'selectivity ratio at 48 h', '> 1000');

q: I'd like to know its selectivity ratio at 48 h. The molecule in question is Nc1nc2c(ncn2COCCO)c(=O)[nH]1
a: > 619

q: selectivity ratio at 48 h lookup needed for C[C@@H](O)[C@H](O)[C@@H](O)CCN[C@H]1CC[C@@]2(C)[C@H](CC[C@@H]3[C@@H]2CC[C@]2(C)[C@@H](C4=CC(=O)OC4)CC[C@]32O)C1 , thanks.
a: > 236
